- Tested on: BVDV-1 (strain PE515)
- test name: Anti-BVDV assay, virus-induced cytopathic effect in MDBK cells (MTS)
- Assay type: cell-based, Bovine Viral Diarrhea Virus
- details: Bovine viral diarrhea virus isolates and strains; Table 9; reduction of virus induced cytopathic effect in MDBK cells by 50%; BVDV strain PE515; mean of 2-5 determinations; read-out: EC50
outcome measure: EC50 (µg/mL)
Give bare numbers, in µg/mL.

>  <molecule>
Brc1ccc(Cn2ccc3nc(-c4ccc5ccccc5c4)nc-3c2)cc1

>  <EC50 (µg/mL)>
0.0042

$$$$
>  <molecule>
Brc1ccc(Cn2ccc3nc(-c4cccc5ccccc45)nc-3c2)cc1

>  <EC50 (µg/mL)>
0.12

$$$$
>  <molecule>
Fc1cccc(F)c1Cn1ccc2nc(-c3ccccc3)nc-2c1

>  <EC50 (µg/mL)>
0.06

$$$$

Record EC50 for all entries; do not skip any.
1. c1ccc(CCCCn2ccc3nc(-c4ccccc4)nc-3c2)cc1
2. Clc1cccc(Cn2ccc3nc(-c4ccccc4)nc-3c2)c1
3. Cl.Clc1ccc(Cn2ccc3nc(-c4ccccc4)nc-3c2)cc1 [GPJN-9 xHCl]
4. COc1ccc(Cn2ccc3nc(-c4ccccc4)nc-3c2)cc1

0.945
0.086
0.016
0.043

Record EC50 for all entries; do not skip any.
1. Fc1ccc(Cn2ccc3nc(-c4ccccc4)nc-3c2)cc1
2. Fc1ccccc1Cn1ccc2nc(-c3ccccc3)nc-2c1
3. Fc1cccc(F)c1-c1nc2ccn(Cc3ccccc3)cc-2n1
4. c1ccc(-c2nc3ccn(Cc4cccnc4)cc-3n2)cc1
5. CCc1nc2ccn(Cc3ccc(Br)cc3)cc-2n1

1. 0.013
2. 0.097
3. 0.24
4. 0.365
5. 0.351
